Item-by-item account of protein stability index
- Tested on: Saccharomyces cerevisiae
- TEST_NAME: protein stability index of tFT-peptide fusion (C-terminal peptide) (PSI (0-1 scale)); higher = more stable (slower turnover)
- TEST_SETTINGS: genetic background: das1 deletion; temperature: 30 C

RESIDUE_SEQUENCE	protein stability index
SLFPSLETEDKK [MIH1 C-terminal 12 aa]	0.674
VLSNNVPYTQPR [RCH1 C-terminal 12 aa]	0.703
VVVVVPAVVKTR [SSO1 C-terminal 12 aa]	0.503
YWRKQYPEVDLP [UIP3 C-terminal 12 aa]	0.728
KGTKRDQNDNHN [AQR1 C-terminal 12 aa]	0.698
NDIFIPEQEHKQ [HPT1 C-terminal 12 aa]	0.721
LEDQDGSLYLNY [PFU1 C-terminal 12 aa]	0.712
SLLFVGPLFLKV [YCL007C C-terminal 12 aa]	0.401
KQIVFEIPSETH [RPS7A C-terminal 12 aa]	0.701
ALQKQIKNALPC [PTP2 C-terminal 12 aa]	0.694
TNGITTERHKKK [NTG2 C-terminal 12 aa]	0.714
IPTKKSQMDYFL [PPH3 C-terminal 12 aa]	0.709

====

- System: Saccharomyces cerevisiae
- TEST_NAME: protein stability index of tFT-peptide fusion (C-terminal peptide) (PSI (0-1 scale)); higher = more stable (slower turnover)
- TEST_SETTINGS: genetic background: das1 deletion; temperature: 30 C

RESIDUE_SEQUENCE	TESTED_TARGET	protein stability index
TRKKGGRRGRRL [RPS14A C-terminal 12 aa]	Saccharomyces cerevisiae	0.711
RVRTLARKHLSK [TRS20 C-terminal 12 aa]	Saccharomyces cerevisiae	0.692
LVKPKNWKKFRE [KRE2 C-terminal 12 aa]	Saccharomyces cerevisiae	0.686
SRVGRKVATLDQ [YAT2 C-terminal 12 aa]	Saccharomyces cerevisiae	0.699
DIDDDVGEDSED [RMR1 C-terminal 12 aa]	Saccharomyces cerevisiae	0.694
SVLKRVRKLFGE [VMA7 C-terminal 12 aa]	Saccharomyces cerevisiae	0.712
QEPVIDPGTVVV [MRPL3 C-terminal 12 aa]	Saccharomyces cerevisiae	0.677
ASFVEVNAEVFL [FRS1 C-terminal 12 aa]	Saccharomyces cerevisiae	0.713
NSALSSTSTLAI [RIB1 C-terminal 12 aa]	Saccharomyces cerevisiae	0.642
AAIPVILAKIKV [SHE4 C-terminal 12 aa]	Saccharomyces cerevisiae	0.502
DWQNGQVEDSIP [PEX14 C-terminal 12 aa]	Saccharomyces cerevisiae	0.711
ESEYREQQQNPQ [SHQ1 C-terminal 12 aa]	Saccharomyces cerevisiae	0.688
SWETKLKQNILE [CSN9 C-terminal 12 aa]	Saccharomyces cerevisiae	0.716
LSEEDLLDDESS [YPF1 C-terminal 12 aa]	Saccharomyces cerevisiae	0.669
PSVSRKTPDYFL [PPH21 C-terminal 12 aa]	Saccharomyces cerevisiae	0.701
VLYIILYYIILY [YGL024W C-terminal 12 aa]	Saccharomyces cerevisiae	0.282
ELNEEKRRSALP [SAK1 C-terminal 12 aa]	Saccharomyces cerevisiae	0.687
GETDSKIKYKYR [SND2 C-terminal 12 aa]	Saccharomyces cerevisiae	0.712
LPSINTIFKDML [DOT6 C-terminal 12 aa]	Saccharomyces cerevisiae	0.702
SFRSSHFYSLIA [YLR217W C-terminal 12 aa]	Saccharomyces cerevisiae	0.691
IFVAILLRYAKI [PCA1 C-terminal 12 aa]	Saccharomyces cerevisiae	0.243
TDFENPNFRYTL [DAL5 C-terminal 12 aa]	Saccharomyces cerevisiae	0.756
NEPEVQPEAAAN [PUS1 C-terminal 12 aa]	Saccharomyces cerevisiae	0.679
SSSSTSVNKTLD [VIP1 C-terminal 12 aa]	Saccharomyces cerevisiae	0.734
KNFKTDLSSSSL [SMK1 C-terminal 12 aa]	Saccharomyces cerevisiae	0.7
FFRYFTFSSSYW [YDR464C-A C-terminal 12 aa]	Saccharomyces cerevisiae	0.7
GSAAVAGALLLL [YNL190W C-terminal 12 aa]	Saccharomyces cerevisiae	0.689
DEFIKKNSDKIR [EXO84 C-terminal 12 aa]	Saccharomyces cerevisiae	0.676
EGENVRSKVERF [YKL070W C-terminal 12 aa]	Saccharomyces cerevisiae	0.726
YKQREYYTGVAW [ERG28 C-terminal 12 aa]	Saccharomyces cerevisiae	0.703
EEGEVVEEEAEK [HSP78 C-terminal 12 aa]	Saccharomyces cerevisiae	0.678
GESISMLFEHGW [PRS5 C-terminal 12 aa]	Saccharomyces cerevisiae	0.719
FILKAKLEWIKW [YOL075C C-terminal 12 aa]	Saccharomyces cerevisiae	0.515
PKDLTSLLEWKE [CLA4 C-terminal 12 aa]	Saccharomyces cerevisiae	0.7
YFFSSDRAIFNA [YGL041C-B C-terminal 12 aa]	Saccharomyces cerevisiae	0.731
GVITPVYFPLRW [YDR215C C-terminal 12 aa]	Saccharomyces cerevisiae	0.725
EDWSVEELIVDL [RPO26 C-terminal 12 aa]	Saccharomyces cerevisiae	0.681
VHAENTTLREIL [CDC50 C-terminal 12 aa]	Saccharomyces cerevisiae	0.706
RPQYRRIAALEE [PSY3 C-terminal 12 aa]	Saccharomyces cerevisiae	0.695
KQSQRQVPHSIK [SPO21 C-terminal 12 aa]	Saccharomyces cerevisiae	0.719
KVSPAAAAKKAL [RPS26B C-terminal 12 aa]	Saccharomyces cerevisiae	0.684
ILDDTRQALGNT [PCL8 C-terminal 12 aa]	Saccharomyces cerevisiae	0.703
LQLFVNLGCPLS [YDR455C C-terminal 12 aa]	Saccharomyces cerevisiae	0.727
ALSCLGHSKIFI [YML094C-A C-terminal 12 aa]	Saccharomyces cerevisiae	0.708
VTSGKAHFVLYN [SIM1 C-terminal 12 aa]	Saccharomyces cerevisiae	0.695
WFSCSLIFRNSW [YJR140W-A C-terminal 12 aa]	Saccharomyces cerevisiae	0.631
KLKRTITLPQLD [CIK1 C-terminal 12 aa]	Saccharomyces cerevisiae	0.691
SPGYKAYLREER [YSF3 C-terminal 12 aa]	Saccharomyces cerevisiae	0.722
NTGFDPHLEDGM [TBF1 C-terminal 12 aa]	Saccharomyces cerevisiae	0.708

====

- System: Saccharomyces cerevisiae
- TEST_NAME: protein stability index of tFT-peptide fusion (C-terminal peptide) (PSI (0-1 scale)); higher = more stable (slower turnover)
- TEST_SETTINGS: genetic background: wild type; temperature: 30 C
Consider the reported protein stability index of an entry and match it to a band in class 1: < 0.2; class 2: ≥ 0.2 and < 0.4; class 3: ≥ 0.4

1. GVCSFFVCVFFV class 1
2. RKNSQKILKLSG class 2
3. VSISLCVLCPVF class 2
4. MIILGFILYFFW class 2
5. SSFFFLFCFFPS class 3
6. LGCLVWGGVWGV class 3
7. LSTPPLLPTPPS class 3
8. FFFFSMFSFFIP class 3
9. LCFFLAFSFVFF class 2
10. GFVISSCRLFIL class 2
11. CFTLSLCLAFFF class 2
12. FLAWSVGILCRV class 2
13. TSPYTSFAHTSL class 3
14. GLVVWWLSGWLW class 2
15. YQKIARVSLAVS class 2
16. VCCSSVSLLVFA class 2
17. ARRFLVRRFILF class 1
18. CFPFYVSCLLVL class 2
19. MALAVRVVKCGA class 2
20. CSPAFRPIVFVL class 1
21. RVVITYLVLSNR class 3
22. FFSFTVLVSYGF class 1
23. CLFSPFCFILFC class 1
24. VGRANLSVIRKV class 2
25. VGFYGRWVCVAC class 2
26. WLFAILPSRLIA class 1
27. VVSLGGWCLYIY class 2
28. FYSLYLSLVCFN class 1
29. FCVVFFLSLVFL class 2
30. HDRLRGVFWRVP class 2
31. PFALTPPPSPRS class 2
32. FFVRSWWVELLF class 2
33. AFRFFWFFFFTS class 3
34. FIFYYTVLLLCR class 1
35. VSLSWFSCCFVG class 2
36. PDCRPPLVRCLL class 3
37. FFYRFQDLPRIC class 2
38. AGVRCPLFWLVC class 1
39. NFKELMEKSKYR class 3
40. VGGSRGARLGVG class 2
41. GLCLFLIGVFSV class 2
42. AHPTLILTNKIA class 1
43. CSVPLGVFAIVV class 2
44. HLKKKLKIRLIN class 1
45. FLSCSRRPLRCW class 2
46. ISHLQCFFVVML class 2
47. DVVVIFGILCYC class 1
48. RDPLAPLLLAIP class 3
49. SGCWGRRLWFFN class 2
50. DSGMLDFLLMAW class 3
51. FCGWLGVYLVKG class 3
52. EVGFHRRWVALS class 1
53. SLRKRILCRFEY class 3
54. GDINRNTRYLEK class 3
55. VSFGELGVEVVG class 3
56. RYQDLSDWRRIS class 1
57. CPPPPPSLLLLC class 1
58. ETQKEKRENAKP class 3
59. CGLLSALSCLVF class 3
60. IYEAFLVFCLCG class 2
61. WVGGVLLSVVGG class 1
62. WVRLWGVLEAQG class 2
63. LSVSLFPIRYVG class 2
64. DDVRFLLWGLCC class 2
65. FLCLFFLAVIKL class 2
66. SPVPITVAVGCR class 2
67. SVPRTRAPRLIS class 2
68. GVFLVWWVGFWV class 2
69. LWVTRVYCLLVC class 1
70. SLCSRLVVVAWF class 2
71. QVSHLFAAVQLA class 2
72. VVGLSLLFSGGV class 3
73. CALLLLSVRAGQ class 3
74. GAVKCLVCLAVW class 2
75. RLFLLIECSSGF class 2
76. LEGRFLACRGIC class 1
77. LFPVFFPLFAPA class 2
